Target system: T1, recombinant extracellular domain protein of human DLL3 (h.DLL3-ECD-His) (human, UniProt Q9NYJ7 27-492)
T1 construct: extracellular domain; Commercial protein; also called human DLL3 antigen; not shown: His tag
T1 sequence (looked up): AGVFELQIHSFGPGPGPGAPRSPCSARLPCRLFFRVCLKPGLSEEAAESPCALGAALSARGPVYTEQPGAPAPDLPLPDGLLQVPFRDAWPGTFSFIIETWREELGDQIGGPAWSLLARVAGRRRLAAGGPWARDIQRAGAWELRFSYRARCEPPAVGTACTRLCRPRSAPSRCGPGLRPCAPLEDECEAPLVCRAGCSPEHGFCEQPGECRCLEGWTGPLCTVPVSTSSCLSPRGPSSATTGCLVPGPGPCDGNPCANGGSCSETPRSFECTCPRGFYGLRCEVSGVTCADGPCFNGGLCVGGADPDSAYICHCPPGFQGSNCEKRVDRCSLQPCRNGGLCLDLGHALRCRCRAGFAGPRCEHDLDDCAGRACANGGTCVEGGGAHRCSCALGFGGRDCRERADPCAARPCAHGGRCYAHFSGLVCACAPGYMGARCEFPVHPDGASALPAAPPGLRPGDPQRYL
Assay notes: ELISA, coated h.DLL3-ECD-his 0.2 µg/mL, antibody titrated
Each entry below carries its recorded EC50.
Respond with the bare value in ng/mL.

binder="6F11C10-Hz1 antibody (antibody, human IgG1, kappa, V domains shown, Humanized IgG1/kappa) VH: EVQLVQSGAEVKKPGASVKVSCKASGFTFTDYYMHWVRQAPGQSLEWMGLVYPYNGDISYAQKFQGRVTLTVDTSISTAYMELSRLRSDDTAVYYCARQGNYVNNAIDYWGQGTLVTVSS VL: DIQMTQSPSSLSASVGDRVTITCKASQNVGNIIAWYQQKPGKSPKALIYLASYRYSGVPSRFSGSGSGTDFTLTISSLQPEDVATYFCQQYSDSPYTFGQGTKVEIKR" readout_units=ng/mL recorded_value=4.7

Fill in: EC50 of 87F7F10-Hz (antibody, human IgG1, kappa, V domains shown, Humanized; also called 87F7F10-hz1) VH: QVQLQESGPGLVKPSETLSLTCTVSGYSITSDFYWNWIRQPPGKGLEWIGYITYDGSTNYNPSLKSRVTISRDTSKNQFSLKLSSVTAADTAVYYCVYGDFNRHAMDYWGQGTLVTVSS VL: DIVMTQSPDSLAVSLGERATINCRSSQSLFNSRTRKNYLAWYQQKPGQPPKVLIYWASTRESGVPDRFSGSGSGTDFTLTISSLQAEDVAVYYCEQSFYLFTFGQGTKVEIKR is ___
3.8

Provenance of the data: patent US20260166168A1
